Origin of the recorded values: ChEMBL document CHEMBL3108776

# measured-on: Receptor-interacting serine/threonine-protein kinase 1 (Homo sapiens, UniProt Q13546)
# Sequence (Q13546 whole entry): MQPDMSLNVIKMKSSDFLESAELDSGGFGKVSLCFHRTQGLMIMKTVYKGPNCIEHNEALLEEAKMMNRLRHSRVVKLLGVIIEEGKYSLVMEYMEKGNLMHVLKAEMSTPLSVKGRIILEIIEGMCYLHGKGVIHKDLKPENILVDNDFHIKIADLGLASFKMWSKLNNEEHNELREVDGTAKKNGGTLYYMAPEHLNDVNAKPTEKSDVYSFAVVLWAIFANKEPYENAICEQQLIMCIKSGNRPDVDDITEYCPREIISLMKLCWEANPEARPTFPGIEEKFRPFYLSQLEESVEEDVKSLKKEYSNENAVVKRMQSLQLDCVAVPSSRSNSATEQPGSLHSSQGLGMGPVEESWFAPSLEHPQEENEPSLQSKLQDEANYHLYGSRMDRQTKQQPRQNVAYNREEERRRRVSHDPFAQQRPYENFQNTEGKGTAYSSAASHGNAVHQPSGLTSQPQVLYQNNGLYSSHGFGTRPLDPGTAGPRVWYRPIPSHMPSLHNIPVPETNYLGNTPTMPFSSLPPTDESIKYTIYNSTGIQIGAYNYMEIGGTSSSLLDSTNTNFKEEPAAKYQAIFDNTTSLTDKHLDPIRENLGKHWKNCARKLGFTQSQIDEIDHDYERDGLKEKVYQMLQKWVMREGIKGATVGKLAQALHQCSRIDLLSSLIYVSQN
# assay-name: Inhibition of human N-terminal His-GST-TEV-fused RIP1 kinase domain (1 to 375) autophosphorylation expressed in baculovirus infected insect Sf9 cells after 4 hrs by ADP-Glo luminescence assay
readout-label: pIC50
# pIC50 is unitless: minus log10 of the molar concentration; print number only

# count of solved cases: 5
{"compound": "Nc1nccc2c(-c3ccc(NC(=O)Nc4cc(C(F)(F)F)ccc4Cl)cc3)cccc12", "pIC50": 6.20}
{"compound": "O=C(Nc1cccc(-c2c[nH]c3ncc(-c4cn[nH]c4)cc23)c1)Nc1cc(C(F)(F)F)ccc1F", "pIC50": 8.22}
{"compound": "Nc1ncnc2occ(-c3ccc(NC(=O)Nc4cc(C(F)(F)F)ccc4Cl)cc3)c12", "pIC50": 5.60}
{"compound": "Nc1nccc2c(-c3ccc(NC(=O)Nc4ccc(Cl)c(C(F)(F)F)c4)cc3)cccc12", "pIC50": 6.80}
{"compound": "Nc1ncnc2occ(-c3ccc(NC(=O)Nc4cccc(C(F)(F)F)c4)cc3)c12 [GW795493X]", "pIC50": 8.00}

Case Nc1nccc2c(-c3ccc(NC(=O)Nc4cccc(C(F)(F)F)c4F)cc3)cccc12 , Receptor-interacting serine/threonine-protein kinase 1 (Homo sapiens, UniProt Q13546), pIC50 recorded as 5.40

I looked up CCS(=O)(=O)c1ccc(-c2cnc3[nH]cc(-c4cccc(NC(=O)Nc5cc(C(F)(F)F)ccc5F)c4)c3c2)cc1 and its pIC50 for Receptor-interacting serine/threonine-protein kinase 1 (Homo sapiens, UniProt Q13546) was 8.00
